The entries below come with measured apparent KD of MS2 coat protein values attached.
- Test system: MS2 coat protein
- assay.info: apparent KD of MS2 coat protein, switch ON state; designed switch direction (-1 OFF switch, 1 ON switch): -1; higher = weaker reporter binding
- setup.conditions: FMN input: 0 or 200 uM; Eterna round: R93 (includes R88 designs)
Reply numerically in nM, unit not repeated.

Would you please look over these solved cases?
AAAAAACAUGAGGAUCACCCAUGUAAGGAUAUGCUAUGGAAAAUAAAAAUAAAACAUAGCAGAAGGUACACCAA [Amethyst 81]	18.9
AAGAAGAGAGGAUAUACAUGAGGAUCACCCAUGUAAAAGAAAGAAAGGGAAAAGAAAAGUAGAAGGCUCAAGAA [Neferkare-setpenre Ramesses IX]	34.6
AAAAGCUCAGGAUAUACGGUCUGUUGUUGAGAAAUAUCGAAACAUGAGGAUCACCCAUGUAGAAGGGAGCGAAA [Exclusion2-cac2]	108

What the record says about AGGUAGUCAGGAUAUGCGUGAAGAAUAAAACAAAUAACAACGCAGAAGGGACAUGAGGAUCACCCAUGUUAAGA [May 48] : apparent KD of MS2 coat protein is 36.1

What the record says about AUGUACCUAGGAUAUACAUGAGGAUCACCCAUGUUCCGGGAGCAAUCAAGUUAAUAUUGUAGAAGGAGGUGAAA [JR_Exc003_Sub314] : apparent KD of MS2 coat protein is 16

What the record says about GAGAUACAUGAGGAUCACCCAUGUGAGGAUAUCGGUUGGAGGAGGUGGAGGUUGAGUACGAGAAGGCACGGAUG [salish99-Ex1-10] : apparent KD of MS2 coat protein is 24.9

----------
- Test system: MS2 coat protein
- assay.info: apparent KD of MS2 coat protein; designed switch direction (-1 OFF switch, 1 ON switch): 1; higher = weaker reporter binding
- setup.conditions: input ligand: FMN 200 uM
Note to self: values exactly at 20 nM are satisfied. So apparent KD of MS2 coat protein at or above 20 nM is satisfied, below is not satisfied.

As a guide, the following entries are already answered.
AUUUUUCAUGCAGGAUAUGAUUAACAUGAGGAUCACCCAUGUGGUGUUGUGAGUAAGGAGAGUGAUCAGAAGGGCAUUUUUUUU [JMF's solution 94] (Eterna round: R96, puzzle: Same State NG 2)	satisfied
AGGCUCAGACUAGGAUAUAUGUGGUCACAUGAGGAUCACCCAUGUCUCGAGCUUCGGCUCGAGGCAUAGAAGGAGUCUGAGCCA [SSNG2/5-D1] (Eterna round: R96, puzzle: Same State NG 2)	satisfied

Q. Could you tell me if the measured apparent KD of MS2 coat protein of AUUGCUAGCACAGGAUAUCAUGCGAAAAUUGCGUGAGAAGGGUGUACUCUGUCAUUGCCGGAGGACAUGAGGAUCACCCAUGUC [SameState NG1 #82] (Eterna round: R96, puzzle: Same State NG 1) reaches 20 nM or more?
A. satisfied

Q. Could you tell me if the measured apparent KD of MS2 coat protein of AAGUAGCGAGAGCUACACAAAAAGUUUGUACAUGAGGAUCACCCAUGUUGUACAAGCUUUUUGCUCGUCUUAAAAAA [Mat - Sensor - JL mod - D14] (Eterna round: R96, puzzle: Sensor for hsa-mir-208a) reaches 20 nM or more?
A. satisfied

Q. Could you tell me if the measured apparent KD of MS2 coat protein of GUAGCAUACCGAGGAUAUUCAUAUAAUAUUACAUGAGGAUCACCCAUGUAUAGGCGAAAGCCUUGGGAGAAGGCGGAAUGCUAC [Xeonanis - 20 Mod61] (Eterna round: R96, puzzle: Same State NG 2) reaches 20 nM or more?
A. not satisfied

Q. Could you tell me if the measured apparent KD of MS2 coat protein of GCUACCAUUGAAGCCAACAUGAGGAUCACCCAUGUAUGUUGGUAGGAUAUCGAUUGCUUUGCGAUCGAGAAGGGCUAAGGUAGC [JL SSNG3 1.28] (Eterna round: R96, puzzle: Same State NG 3) reaches 20 nM or more?
A. satisfied

Q. Could you tell me if the measured apparent KD of MS2 coat protein of CCUGACAUGAGGAUCACCCAUGUAGGGAAACAAUGACAUAUGGAGGAUAUACACCCGAAAGGCGCGUAGAAGGUCACAUGUCCA [Eternabot solution 5] (Eterna round: R96, puzzle: Same State NG 3) reaches 20 nM or more?
A. not satisfied

Q. Could you tell me if the measured apparent KD of MS2 coat protein of GGACGUCAAUCUCCUACUUAAACAUGAGGAUCACCCAUGUCACAGGAUAUGAGUCCGAUUAGGACUCAGAAGGGUGAGACGUCC [Fiskers NG3ss - 50] (Eterna round: R96, puzzle: Same State NG 3) reaches 20 nM or more?
A. not satisfied

Q. Could you tell me if the measured apparent KD of MS2 coat protein of AAGAAACAUGAGGAUCACCCAUGUAGAAAUAUGGGAGGAUAUACGAGGACGAAAGUCAAAGUAGAAGGCCUAAGAA [Mat - Same State 1 - Meechl mod - D130] (Eterna round: R96, puzzle: Same State 1) reaches 20 nM or more?
A. satisfied

Q. Could you tell me if the measured apparent KD of MS2 coat protein of AAGUGAAUAGUGAUUACAUGAGGAUCACCCAUGUGGUGGAUGCAGGAUAUUAUUAGACCGUACAAUAAGAAGGGCGUAAUCACC [Eternabot solution 44] (Eterna round: R96, puzzle: Same State NG 3) reaches 20 nM or more?
A. satisfied

Q. Could you tell me if the measured apparent KD of MS2 coat protein of AAUUAAGAUUGAGGAUAUCACGUCGAAUAGACGUGAGAAGGCGAUCAUAACAUGAGGAUCACCCAUGUAUUACAUGAAUUAAUU [SSNG1/5-B1] (Eterna round: R96, puzzle: Same State NG 1) reaches 20 nM or more?
A. satisfied

Q. Could you tell me if the measured apparent KD of MS2 coat protein of GGUCGGACUACAUGAGGAUCACCCAUGUGUGCGGAAACGCCAUAGGAUAUCUGUCCGAAAAGGUCAGAGAAGGGUGAACCGACC [Fiskers NG3ss - 67] (Eterna round: R96, puzzle: Same State NG 3) reaches 20 nM or more?
A. satisfied

Q. Could you tell me if the measured apparent KD of MS2 coat protein of AAAAUAAAUACAGGAUAUAGCCGCCUAAAGCGGCUAGAAGGGUAGAUCGAAAUACAUGAGGAUCACCCAUGUGCACGUAAGUGC [Eresesgeti] (Eterna round: R96, puzzle: Same State NG 1) reaches 20 nM or more?
A. satisfied

Q. Could you tell me if the measured apparent KD of MS2 coat protein of AUAUGAGGAGCAGGAUAUGCGAAGAAGAAAGAAGUAGAAGGGCUCAUGGGACGACAUGAGGAUCACCCAUGUACUUCCCGAUGA [AK SSNG1-V2-7] (Eterna round: R96, puzzle: Same State NG 1) reaches 20 nM or more?
A. satisfied

Q. Could you tell me if the measured apparent KD of MS2 coat protein of AGCCUGAGUCGAGGAUAUUAUGGAUCAAUUAAUACAUGAGGAUCACCCAUGUAAUUAAUUUAACAUGAGAAGGCGACUCAGGCA [SSNG2/10-A1] (Eterna round: R96, puzzle: Same State NG 2) reaches 20 nM or more?
A. not satisfied

Q. Could you tell me if the measured apparent KD of MS2 coat protein of GUAGCAUACCGAGGAUAUUCAUAUAAUACAUGAGGAUCACCCAUGUUAAAUAGGCGAAAGCCUUGGGAGAAGGCGGAAUGCUAC [Xeonanis - 20 Mod66] (Eterna round: R96, puzzle: Same State NG 2) reaches 20 nM or more?
A. not satisfied

Q. Could you tell me if the measured apparent KD of MS2 coat protein of UUACUCAUGUAAGGAUAUGCAGCCGUUUCGGCUGCAGAAGGUACUAUAAUACAUGAGGAUCACCCAUGUCUUUUUAAUUUUUAC [JL SSNG1 1.28] (Eterna round: R96, puzzle: Same State NG 1) reaches 20 nM or more?
A. satisfied

Q. Could you tell me if the measured apparent KD of MS2 coat protein of GGGAGAGGUACAGGAUAUGGUGAGGAUCACCCACUAGAAGGGUGCACAUGUGAAUCGGACAUGAGGAUCACCCAUGUUGGGCGU (Eterna round: R96, puzzle: Same State NG 1) reaches 20 nM or more?
A. satisfied
